Measured koff of individual entries
tgt: T1, Mouse ST2 (mouse, UniProt P14719 27-332, limits assumed)
T1 construct: also called mouse ST2 protein
T1 sequence (looked up): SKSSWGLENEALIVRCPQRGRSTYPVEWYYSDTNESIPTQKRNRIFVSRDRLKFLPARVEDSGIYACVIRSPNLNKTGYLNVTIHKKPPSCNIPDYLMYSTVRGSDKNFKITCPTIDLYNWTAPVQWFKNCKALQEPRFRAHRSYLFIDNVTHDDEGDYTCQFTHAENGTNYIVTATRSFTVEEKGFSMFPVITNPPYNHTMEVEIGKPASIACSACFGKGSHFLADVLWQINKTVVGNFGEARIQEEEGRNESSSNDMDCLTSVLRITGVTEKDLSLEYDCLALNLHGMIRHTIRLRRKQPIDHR
test.protocol: SPR (Carterra), antibody immobilized, ST2 analyte, 1:1

binder: Human ST2 IgG1 Antibody 30 (antibody, V domains shown, IgG1, kappa; also called ST2 Antibody 30) VH: QVQLVQSGAEVKKPGSSVKVSCKASGYTFTTYGITWVRQAPGQGLEWMGGIIPIFGTANYAQKFQGRVTITADESTSTAYMELSSLRSEDTAVYYCAKLSGSSGSWDYYYYYGMDVWGQGTLVTVSS VL: DIVMTQSPLSLPVTPGEPASISCRSSQSLLHSNGYNYLDWYLQKPGQSPQLLIYAASNLQSGVPDRFSGSGSGTDFTLKISRVEAEDVGVYYCMQALQTPITFGQSTRLEIKR
unit.annotation: s⁻¹
koff: 0.13
--
binder: Human ST2 IgG1 Antibody 38 (antibody, V domains shown, IgG1, kappa; also called ST2 Antibody 38) VH: QVQLVQSGAEVKKPGSSVKVSCKASGGTFSSYAISWVRQAPGQGLEWMGTIIPMFGIADYAQKFQGRVTITADESTSTAYMELSSLRSEDTAVYYCARSSRSSSWYNWYFDLWGRGTLVTVSS VL: EIVMTQSPATLSVSPGERATLSCRASQSISSSYLAWYQQKPGQAPRLLIYGASTRATGIPARFSGSGSGTEFTLTISSLQSEDFAVYYCQQYYTTPWTFGQGTKVEIKR
unit.annotation: s⁻¹
koff: 0.09

Cited source: patent US20210403579A1
